Where these numbers come from: paper PMC10314922

experimental.target: human two-color SERCA2a (2CS) biosensor (Homo sapiens, UniProt P16615, INS508[…])
Sequence (P16615 other isoform, or with tags, fused parts or gaps with the stated changes): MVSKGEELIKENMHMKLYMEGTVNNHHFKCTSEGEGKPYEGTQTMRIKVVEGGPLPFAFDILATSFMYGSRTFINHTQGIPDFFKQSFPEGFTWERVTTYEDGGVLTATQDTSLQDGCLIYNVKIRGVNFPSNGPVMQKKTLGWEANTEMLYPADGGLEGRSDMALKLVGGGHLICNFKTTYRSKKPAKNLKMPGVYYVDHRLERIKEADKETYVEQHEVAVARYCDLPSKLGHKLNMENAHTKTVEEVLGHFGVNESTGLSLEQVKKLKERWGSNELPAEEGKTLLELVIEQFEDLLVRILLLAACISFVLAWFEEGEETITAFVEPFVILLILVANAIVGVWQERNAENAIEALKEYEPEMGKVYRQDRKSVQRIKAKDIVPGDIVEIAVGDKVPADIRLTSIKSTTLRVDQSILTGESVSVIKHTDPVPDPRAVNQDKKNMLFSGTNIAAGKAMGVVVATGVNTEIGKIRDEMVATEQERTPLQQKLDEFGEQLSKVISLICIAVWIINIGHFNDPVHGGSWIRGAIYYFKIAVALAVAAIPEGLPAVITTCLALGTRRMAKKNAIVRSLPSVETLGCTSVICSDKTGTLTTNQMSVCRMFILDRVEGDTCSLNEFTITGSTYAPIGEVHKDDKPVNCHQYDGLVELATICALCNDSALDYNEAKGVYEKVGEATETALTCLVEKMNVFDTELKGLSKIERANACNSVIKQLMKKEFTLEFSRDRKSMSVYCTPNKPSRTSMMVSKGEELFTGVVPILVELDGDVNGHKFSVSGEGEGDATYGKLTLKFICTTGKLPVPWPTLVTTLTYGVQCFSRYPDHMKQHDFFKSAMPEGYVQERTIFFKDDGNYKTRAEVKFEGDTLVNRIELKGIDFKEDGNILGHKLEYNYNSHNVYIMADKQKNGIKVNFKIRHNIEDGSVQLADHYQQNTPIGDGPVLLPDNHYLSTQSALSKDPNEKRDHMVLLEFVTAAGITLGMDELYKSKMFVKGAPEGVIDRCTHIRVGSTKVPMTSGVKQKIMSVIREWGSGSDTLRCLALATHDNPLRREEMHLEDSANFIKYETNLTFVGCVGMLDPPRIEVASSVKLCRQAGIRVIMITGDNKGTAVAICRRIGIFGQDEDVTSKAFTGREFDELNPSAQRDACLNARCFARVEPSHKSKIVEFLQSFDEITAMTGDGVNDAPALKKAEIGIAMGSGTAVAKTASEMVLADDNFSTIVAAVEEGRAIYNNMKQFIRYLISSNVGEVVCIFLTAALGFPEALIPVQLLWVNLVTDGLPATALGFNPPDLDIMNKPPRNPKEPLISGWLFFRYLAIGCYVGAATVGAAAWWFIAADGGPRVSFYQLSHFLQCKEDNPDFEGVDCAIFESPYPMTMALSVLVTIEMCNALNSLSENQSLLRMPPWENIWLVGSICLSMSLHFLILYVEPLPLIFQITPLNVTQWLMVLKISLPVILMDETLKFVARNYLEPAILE
test.summary: FRET concentration response curves (FLT-FRET) with the 2CS biosensor in live HEK cells
# label = true if EC50 < 6 µM else false

Past entries and their recorded results:
{"columns": ["molecule", "class"],
 "data": [
  ["CC1Cc2cc(CNC(=O)c3cc(C(C)C)nn3C)ccc2O1 (stereo not shown)", "true"],
  ["COc1ccc(Cn2cc(C(=O)N(C)Cc3ccnc4ccccc34)nn2)cc1", "true"],
  ["O=C(c1cc(COc2ccc3ncccc3c2)on1)N1CCC(c2ccncc2)CC1", "true"]
]}

Prompt: API: query returns whether the molecule falls strictly under 6 µM in EC50. Query: COc1ccc(Cc2noc(CN3CCN(c4nc5ccccc5s4)CC3)n2)cc1OC
Completion: true

Prompt: API: query returns whether the molecule falls strictly under 6 µM in EC50. Query: CCc1ccc(S(=O)(=O)N2CCCC(C(=O)c3sccc3C)C2)cc1 (stereo not shown)
Completion: false

Prompt: API: query returns whether the molecule falls strictly under 6 µM in EC50. Query: O=S(=O)(NCc1ccccc1)N1CCc2ccc(C(F)(F)F)cc2C1
Completion: false

Prompt: API: query returns whether the molecule falls strictly under 6 µM in EC50. Query: CCc1cnc(N2CC[C@@H](c3ccc4ccccc4c3)[C@H](O)C2)nc1 (relative stereo)
Completion: true
